# assay procedure: self-splicing fitness, log relative to wild type (ln ratio); higher = more splicing; Tetrahymena group I intron in knt gene, E. coli kanamycin selection, DiMSum; sequences stand for … in CUCUCU…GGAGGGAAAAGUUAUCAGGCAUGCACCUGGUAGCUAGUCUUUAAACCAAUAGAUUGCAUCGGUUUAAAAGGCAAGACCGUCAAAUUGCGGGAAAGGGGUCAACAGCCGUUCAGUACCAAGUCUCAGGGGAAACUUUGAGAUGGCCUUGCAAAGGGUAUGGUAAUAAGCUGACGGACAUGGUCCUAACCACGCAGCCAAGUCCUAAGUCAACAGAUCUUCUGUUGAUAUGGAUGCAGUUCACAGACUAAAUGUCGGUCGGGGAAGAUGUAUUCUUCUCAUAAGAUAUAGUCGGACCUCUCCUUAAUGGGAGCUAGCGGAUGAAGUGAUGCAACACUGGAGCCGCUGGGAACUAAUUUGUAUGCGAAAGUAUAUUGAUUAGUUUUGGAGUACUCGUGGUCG;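 further: selection with 25 µg/mL kanamycin versus none on LB agar overnight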
# conditions used: 37 °C
Label criterion met for high-side self-splicing fitness (ln) (at or above -1) and criterion not met for low-side self-splicing fitness (ln) (below it).

Example entries begin here.
sequence | label
UCGGAGCAAUAUUACGAUGU | criterion not met
GUGAAGCAAUAUUACGGUAU | criterion met
AUCGAGCAAUAUUACGUCUC | criterion not met
CUAGAGCAAUAUUACGAGAU | criterion not met
UUCCAGCAAUAUUACGGGCA | criterion met
AGUGAGCAAUAUUACGCACA | criterion met
GUCGAGCAAUAUUACGAAAA | criterion not met
CGUCAGCAAUAUUACGGUUC | criterion met
GUCCAGCAAUAUUACGAGAU | criterion not met
AGUAAGCAAUAUUACGUUGC | criterion not met

Is self-splicing fitness (ln) for "UCCAAGCAAUAUUACGCGUU" at or above -1?
criterion not met

Please check the record "AAAUAGCAAUAUUACGCACC" and state if its self-splicing fitness (ln) is at or above -1.
criterion met

State whether the measured self-splicing fitness (ln) reaches -1, counting equality as reaching it, for "GACUAGCAAUAUUACGCCUC"
criterion not met

Check the entry "AUAGAGCAAUAUUACGCCUG" : does self-splicing fitness (ln) equal or exceed -1?
criterion met

Is reported self-splicing fitness (ln) greater than or equal to -1 here: "AUACAGCAAUAUUACGAAAU"
criterion met

In plain terms: is recorded self-splicing fitness (ln) at least -1 for "CCUAAGCAAUAUUACGUUAU" ?
criterion not met

Has "UAGUAGCAAUAUUACGACAG" a recorded self-splicing fitness (ln) greater than or equal to -1?
criterion not met

# bool: self-splicing fitness (ln) of "GUGAAGCAAUAUUACGUGUC" >= -1
criterion not met

Is it the case that "AGGAAGCAAUAUUACGCUAA" has self-splicing fitness (ln) reaching or exceeding -1?
criterion not met

Is it the case that "ACCGAGCAAUAUUACGUUAU" has self-splicing fitness (ln) reaching or exceeding -1?
criterion not met

Does the sequence "UGUGAGCAAUAUUACGAAUG" have recorded self-splicing fitness (ln) that is -1 or more?
criterion met

Could you tell me if the measured self-splicing fitness (ln) of "GACUAGCAAUAUUACGGAAC" reaches -1 or more?
criterion not met

Is self-splicing fitness (ln) for "ACGUAGCAAUAUUACGAGGC" at or above -1?
criterion not met

Is self-splicing fitness (ln) at least -1? Consider "CCAAAGCAAUAUUACGCAAG"
criterion not met

Evaluate "CCCUAGCAAUAUUACGAUCG" : self-splicing fitness (ln) at minimum -1?
criterion not met

Determine whether this sequence has self-splicing fitness (ln) no lower than -1: "GCGAAGCAAUAUUACGUGAC"
criterion not met

# bool: self-splicing fitness (ln) of "AAAUAGCAAUAUUACGAUGC" >= -1
criterion not met

Test whether the sequence "CGCCAGCAAUAUUACGUGAC" records self-splicing fitness (ln) of -1 or higher.
criterion not met

Item "GAGUAGCAAUAUUACGGGAA" with self-splicing fitness (ln) of -1 or above?
criterion not met

Determine whether this sequence has self-splicing fitness (ln) no lower than -1: "AAAAAGCAAUAUUACGCCGG"
criterion met

Dear colleague, could you confirm whether "CCUGAGCAAUAUUACGGAAC" has self-splicing fitness (ln) at or above -1?
criterion not met

Is the recorded value of self-splicing fitness (ln) equal to or greater than -1 for this sequence? "CCUUAGCAAUAUUACGGGGC"
criterion not met

Could you verify whether the entry "UUAGAGCAAUAUUACGUGGU" shows self-splicing fitness (ln) of no less than -1?
criterion not met

Please check the record "CUCCAGCAAUAUUACGAGCC" and state if its self-splicing fitness (ln) is at or above -1.
criterion not met

Form field: self-splicing fitness (ln) at least -1? Entry: "UGAUAGCAAUAUUACGGCGA"
criterion met

Quick check, self-splicing fitness (ln) >= -1? "GGUUAGCAAUAUUACGGCAG"
criterion not met

Would you say "CGCCAGCAAUAUUACGCUAU" shows self-splicing fitness (ln) at minimum -1?
criterion not met

Is reported self-splicing fitness (ln) greater than or equal to -1 here: "CCCUAGCAAUAUUACGUCGU"
criterion not met
